Source listed as patent US20170022281A1.

Target: T1, rat PRLR on Nb2-11 rat lymphoma cells (rat, UniProt P05710 20-610)
T1 sequence (looked up): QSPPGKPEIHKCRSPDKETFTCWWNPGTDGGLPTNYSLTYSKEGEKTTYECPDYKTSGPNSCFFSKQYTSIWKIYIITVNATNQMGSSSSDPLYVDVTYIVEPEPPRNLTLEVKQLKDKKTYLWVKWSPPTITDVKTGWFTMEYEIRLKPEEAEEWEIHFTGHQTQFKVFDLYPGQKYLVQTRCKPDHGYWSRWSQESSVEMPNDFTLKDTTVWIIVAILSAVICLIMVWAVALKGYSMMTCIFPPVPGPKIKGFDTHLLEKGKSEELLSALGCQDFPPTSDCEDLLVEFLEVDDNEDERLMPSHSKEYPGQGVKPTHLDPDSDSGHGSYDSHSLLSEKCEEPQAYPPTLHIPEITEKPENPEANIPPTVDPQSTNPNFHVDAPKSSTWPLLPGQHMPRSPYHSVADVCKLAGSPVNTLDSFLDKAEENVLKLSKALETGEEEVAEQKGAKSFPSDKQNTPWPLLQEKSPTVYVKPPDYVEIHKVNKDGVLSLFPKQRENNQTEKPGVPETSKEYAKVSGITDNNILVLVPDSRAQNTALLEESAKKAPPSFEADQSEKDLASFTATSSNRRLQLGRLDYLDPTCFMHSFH
Assay: cell-based or functional assay
MEASURED QUANTITY: Nb2-11 proliferation IC50 (mg/L)
Give just the number in mg/L; leave the unit off.

Asked: Respond only with Nb2-11 proliferation IC50 recorded for chAb12 (antibody, human IgG1, kappa, V domains shown) VH: DVQLQESGPGLVKPSQSLSLTCTVTGYSITSDYAWNWIRQFPGNKLEWMGYIGYSGRTSFNPSLKSRISITRDTSKNQFFLQLNSVTTEDTATYYCARGGFAMDYWGQGTSVTVSS VL: QIVLTQSPGIMSASPGEKVTMTCSASSSVTYMYWYQQKPRSSPKPWIYLTSNLASGVPARFSGSGSGTSYSLTISSMEAEDGATYYCQQWSSTPPLTFGGGTKLELNT
Given back: 41.4
